Each recorded value in this set is attributed to paper PMC11480844.

B1: H2-Kb / Ed23 (parent complex)
chain 1: QQKVQQSPESLTVSEGAMASLNCTFSDRSSDNFRWYRQHSGKGLEVLVSIFSDGEKEEGSFTAHLNRASLHVFLHIREPQPSDSALYLCAVRGFWTNKVVFGTGTRLQVLP
chain 2: AQTIHQWPVAEIKAVGSPLSLGCTIKGKSSPNLYWYWQATGGTLQQLFYSITVGQVESVVQLNLSASRPKDDQFILSTEKLLLSHSGFYLCAWSPRQSSYEQYFGPGTRLTVL
chain 3: not shown
chain 4: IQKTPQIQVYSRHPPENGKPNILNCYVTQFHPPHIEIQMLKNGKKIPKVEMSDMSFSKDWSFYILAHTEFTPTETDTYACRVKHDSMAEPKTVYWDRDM
chain 5: SIINFEKL

- Variants of: B1
- assay-summary: % of reporter cells activated (NFAT-GFP), raw; note: test concentration or dose not given here
param class (str): category from ratio to parent; see ranges low end: < 0.6; middle: ≥ 0.6 and < 1; high end: ≥ 1

INSERT INTO measurements (mutation_string, group_label) VALUES
  ('chain 5 E6D', 'middle'),
  ('chain 5 N4G', 'low end'),
  ('chain 5 E6G', 'high end'),
  ('chain 5 F5C', 'high end'),
  ('chain 5 N4I', 'low end');

q: Category lookup for the variant chain 5 K7D
a: low end

q: Would you mind sorting chain 5 I3A into the appropriate category?
a: high end

q: Which ratio to parent band matches chain 5 N4L ?
a: middle

q: For this variant, which bin applies? chain 5 L8Y
a: high end

q: In plain terms, what class is chain 5 F5R ?
a: high end

q: Lab note: which band did chain 5 S1A land in?
a: high end
